Tested on: HEK-293T
Assay: Multiplex assay against HEK293T
Format: toxicity, cell-based
Conditions: human, 12 h, 1 µM, compound concentration 1 uM, replicate 1
Label class 1 when Population Apoptotic (%) is strictly below 40%; at or above that, label class 0.

{"columns": ["Compound", "Class assignment"],
 "data": [
  ["CN(C)C/C=C/C(=O)Nc1cc2c(Nc3ccc(F)c(Cl)c3)ncnc2cc1O[C@H]1CCOC1.O=C(O)/C=C\\C(=O)O.O=C(O)/C=C\\C(=O)O [AFATINIB DIMALEATE]", "class 1"],
  ["CC(=O)c1cc(-c2cc(C(=O)NC3CC3)ccc2C)c2ncccn12", "class 0"],
  ["Cl.Cl.NC1(c2ccc(-c3nc4ccn5c(=O)[nH]nc5c4cc3-c3ccccc3)cc2)CCC1", "class 1"],
  ["CNC(=O)c1nn(C)c2c1C(C)(C)Cc1cnc(Nc3ccc(N4CCN(C)CC4)cc3)nc1-2", "class 1"],
  ["CC(C)Oc1ccc(C(=O)N[C@H](CNC(=O)CN(C)C)Cc2ccc(-c3cn4cccc([C@H](C)O)c4n3)cc2)cc1Cl [GSK-923295A]", "class 1"],
  ["Cc1cn(-c2cc(NC(=O)c3ccc4c(c3)CN(c3cncnc3)C[C@@H]4C)cc(C(F)(F)F)c2)cn1", "class 1"]
]}

Attention now turns to another entry.
Query: Could you please tell me whether Population Apoptotic (%) recorded for CNc1oc(-c2cccc3ccccc23)nc1C#N is less than 40%?
Result: class 0

These measurements were taken from ChEMBL document CHEMBL4689842.
